target: Cytochrome P450 2D6 (Homo sapiens); experiment: Cytochrome panel assay with activity outcomes; conditions: recombinant CYP, pro-luciferin dealkylation, luminescence, p450-cyp2d6; series mostly up to 57.1 µM
Out of some 16,000 compounds screened, about 2,600 (16%) were called active. About 20% were inconclusive and are not listed. Calls come from the whole dose curve; as a rule, active = well fitted curve in the direction sought with a large enough effect; inconclusive = small, poorly fitted or top-dose-only effect, or effect the other way; inactive = no such curve, though single readings can be large or run the other way. The list is a sample of the results.
Labels: active, inactive

1. COc1ccc(NC(=O)c2ccc3c(=O)n(Cc4ccco4)c(=S)[nH]c3c2)c(OC)c1 ... inactive
2. CN(C)c1ncc2nc(-c3cc(F)cc(F)c3)c(=O)n(CCc3ccccc3)c2n1 ... inactive
3. Cc1cccc(Nc2ccccc2C(=O)O)c1C ... inactive
4. CCOC(=O)C(=CNc1ncccc1C)C(=O)OCC ... active
5. O=C(NC(=S)NNC(=O)c1cccs1)c1ccco1 ... inactive
6. Cc1nc2cnc(N3CCN(C)CC3)nc2n(CCc2ccccc2)c1=O ... active
7. Cn1ncc(C#N)c1/N=C/N1CCCCCC1 ... inactive
8. COC(=O)Nc1nc2ccc(SC(C)C)cc2[nH]1 ... inactive
9. CCCSc1nnc2n(N)c(=O)c3ccccc3n12 ... inactive
10. O=C(O)c1cc(S(=O)(=O)N2CCCCC2)ccc1F ... inactive
11. CCCC[C@@H]1C[C@H]1C(NC(=O)c1ccccc1)c1ccccc1C(F)(F)F (stereo partly drawn) ... inactive
12. COCCn1c(=O)c(-c2cc(F)cc(F)c2)nc2cnc(OC)nc21 ... inactive
13. COCCn1c(=O)c(-c2cc(F)cc(F)c2)nc2cnc(N(C)C)nc21 ... inactive
14. CCNc1ncc2nc(-c3cc(F)cc(F)c3)c(=O)n(CCc3ccccc3)c2n1 ... active
15. COC(=O)c1sccc1NC(=O)CSc1cc(Cl)ccc1Cl ... inactive
16. O=C(N/N=C/c1ccco1)c1ccccn1 ... inactive
17. CCNc1ncc2nc(-c3cc(F)cc(F)c3)c(=O)n(CCOC)c2n1 ... active
18. CN1CCN(c2ncc3nc(-c4cccs4)c(=O)n(CCc4ccccc4)c3n2)CC1 ... inactive
19. Clc1ccc(Cl)c(SCCCN2CCNCC2)c1 ... active
20. CN1CCN(c2ncc3nc(-c4cc(F)cc(F)c4)c(=O)n(CCc4ccccc4)c3n2)CC1 ... inactive
21. CN(C)c1ncc2nc(-c3cc(F)cc(F)c3)c(=O)n(C[C@H]3CCCO3)c2n1 ... inactive
22. CN1CCN(CCc2ccc(Cl)c(Cl)c2)CC1 ... active
23. COc1ncc2nc(-c3cn(C)c4ccccc34)c(=O)n(Cc3ccc(F)cc3)c2n1 ... inactive

----------
biological target: Cytochrome P450 2D6 (Homo sapiens); experiment: Cytochrome panel assay with activity outcomes; settings: recombinant CYP, pro-luciferin dealkylation, luminescence, p450-cyp2d6; series mostly up to 57.1 µM
In all, about 16,000 compounds went through this assay and about 2,600 (16%) were called active. Roughly 20% stayed inconclusive and do not appear here. Calls follow the shape of the dose curve; as a rule, active = well fitted curve in the direction sought with a large enough effect; inconclusive = small, poorly fitted or top-dose-only effect, or effect the other way; inactive = no such curve, though single readings can be large or run the other way. Not all results are given here.
Labels: active, inactive

1) CCc1ccc(OCC(=O)NC(=S)Nc2ccc(C)cc2C)c(Br)c1 ... inactive
2) Cc1cc(C(F)(F)F)n2nc(-c3cnn(C)c3C(F)(F)F)c(Cl)c2n1 ... inactive
3) CCCC[C@@H]1C[C@H]1C(NC(=O)c1ccccc1)c1ccc(-c2ccccc2)cc1 (some centres not stated) ... inactive
4) COC(=O)N1CCC2(CC1)CN(C(=O)Nc1cccc(C#N)c1)C2 ... inactive
5) C=C(CC1([C@@H](NP(=O)(c2ccccc2)c2ccccc2)[C@H]2C[C@@H]2CCCC)CC1)c1ccccc1 ... inactive
6) FC(F)(F)c1ccc(/C=N/N2CCN(Cc3cccc4ccccc34)CC2)cc1 ... inactive
7) C[n+]1cccc(CNC(=O)/C=N/O)c1 ... inactive
8) CC(C)Sc1cc(N2CCCC2)nc(-c2ccc(F)cc2)n1 ... inactive
9) Cn1cc(-c2nc3cnc(N4CCOCC4)nc3n(CCC#N)c2=O)c2ccccc21 ... inactive
10) CCCC[C@H]1C[C@@H]1[C@@H]1N(P(=O)(c2ccccc2)c2ccccc2)[C@](CO)(c2ccccc2)CC12CC2 ... active
11) COc1cccc(=O)c2c(C)n(-c3cc(C)cc(C)c3)c(C)c12 ... inactive
12) COC(=O)c1ccc2ccn(CC(=O)NC3CCCCC3)c2c1 ... inactive
13) Cc1c(NC(=O)NC(C)N2C(=O)C3C4C=CC(C4)C3C2=O)c(=O)n(-c2ccccc2)n1C (configuration not stated) ... inactive
14) COc1ccc(Cc2nnc(NC(=O)Cn3cnc4c3c(=O)n(C)c(=O)n4C)s2)cc1OC ... inactive
15) Cc1ccnc(NCn2nnc3ccccc32)c1 ... inactive
16) O=c1c(-c2cccs2)nc2cncnc2n1C1CC1 ... inactive
17) COc1ccccc1/C=C/C=N/N1CCN(Cc2cccc3ccccc23)CC1 ... active
18) C=CCNc1sc(C(=O)c2ccccc2)c(N)c1C#N ... inactive
19) O=c1c(-c2nc3ccccc3s2)cccn1Cc1ccccc1 ... inactive
20) COc1ccccc1CC(=O)O/N=C(\N)Cc1cccc2ccccc12 ... inactive
21) COc1cccc(OC)c1C(=O)Nc1cc(C)on1 ... inactive
22) CCOC(=O)Cc1csc(NC(=O)c2ccc(Cl)nc2)n1 ... inactive

----------
target: Cytochrome P450 2D6 (Homo sapiens) (UniProt P10635); assay: Cytochrome panel assay with activity outcomes; details: recombinant CYP, pro-luciferin dealkylation, luminescence, p450-cyp2d6; series mostly up to 57.1 µM
Sequence (P10635 whole entry, looked up): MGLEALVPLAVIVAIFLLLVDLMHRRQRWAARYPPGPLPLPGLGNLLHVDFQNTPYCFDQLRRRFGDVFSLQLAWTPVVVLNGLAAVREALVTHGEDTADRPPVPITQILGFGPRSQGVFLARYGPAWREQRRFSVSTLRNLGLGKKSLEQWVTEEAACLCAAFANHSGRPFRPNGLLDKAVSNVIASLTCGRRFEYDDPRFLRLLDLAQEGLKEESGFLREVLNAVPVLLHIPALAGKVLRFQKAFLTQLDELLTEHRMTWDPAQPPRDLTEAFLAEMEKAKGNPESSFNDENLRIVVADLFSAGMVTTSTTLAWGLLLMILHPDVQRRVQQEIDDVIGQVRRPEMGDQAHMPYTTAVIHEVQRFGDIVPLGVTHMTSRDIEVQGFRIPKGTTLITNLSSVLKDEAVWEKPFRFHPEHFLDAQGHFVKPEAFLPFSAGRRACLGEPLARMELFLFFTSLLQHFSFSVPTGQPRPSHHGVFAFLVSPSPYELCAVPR
Among all 16,000 compounds or so, about 2,600 (16%) were called active. Roughly 20% stayed inconclusive and do not appear here. Calls come from the whole dose curve; as a rule, active = well fitted curve in the direction sought with a large enough effect; inconclusive = small, poorly fitted or top-dose-only effect, or effect the other way; inactive = no such curve, though single readings can be large or run the other way. The list is a sample of the results.
Labels: active, inactive

1) Cc1ccc(C2CC2C(=O)NN)cc1 (stereo unspecified) ... inactive
2) Oc1ccc(Cc2nccc3cc(O)c(O)cc23)cc1O ... active
3) Cc1ccc(C)c(NC(=O)C2CC3c4ccccc4C2c2ccccc23)c1 (stereo unspecified) ... active
4) O=S(=O)(c1cccc2c(I)cccc12)N1CCCNCC1 ... active
5) CC1(C)CC(=O)C(CCCN2C(=O)c3ccccc3C2=O)C(=O)C1 ... inactive
6) Cc1ccc(C(CC(=O)c2ccco2)SCCO)cc1 (stereo unspecified) ... inactive
7) O=C(c1coc2ccccc2c1=O)N1CCN(c2cccc(C(F)(F)F)c2)CC1 ... inactive
8) C=C1c2cccc(O)c2C(O)=C2C(=O)[C@@]3(O)C(O)=C(C(N)=O)C(=O)[C@@H](N(C)C)[C@@H]3[C@@H](O)[C@H]12 ... inactive
9) O=C(CCN1C(=O)C2C3C=CC(C3)C2C1=O)N1CCN(c2cccc(Cl)c2)CC1 (stereo unspecified) ... inactive
10) CCOC(=O)COc1c(OC)cc(Cl)cc1C1Nc2ccccc2C(=O)N1c1cccc(C)c1 (stereo unspecified) ... inactive
11) CCOC(=O)c1c(C)n(C)c2ccc(OC(=O)c3ccco3)cc12 ... inactive
12) COC(=O)[C@@]1(Cc2ccccc2)[C@H]2c3cc(C(=O)N4CCCC4)n(Cc4ccc(S(C)(=O)=O)cc4)c3C[C@H]2CN1C(=O)c1ccccc1 ... inactive
13) O=S(=O)(c1cccc2cnccc12)N1CCNCC1 ... inactive
14) O=c1cc(N2CCN(c3ccccc3)CC2)[nH]c(=O)n1C1CCCCC1 ... inactive
15) Cc1ccc(C2NC(c3ccc(C)cc3)C(C)C(=NO)C2C)cc1 (stereo unspecified) ... active
16) Cc1ccc(C(=O)NC(=S)Nc2cc(-c3nc4ccccc4s3)ccc2C)cc1 ... inactive
17) Cc1cc(C)c(S(=O)(=O)N2CCN(c3ccc([N+](=O)[O-])c(NCc4ccco4)c3)CC2)c(C)c1 ... inactive
18) FC(F)(F)c1cccc(N2CCN(CC3CC4C=CC3C4)CC2)c1 (stereo unspecified) ... active
19) COC(=O)[C@@]1(Cc2ccc(OC)cc2)[C@H]2c3cc(C(=O)N4CCCC4)n(Cc4ccc(Cl)c(C(F)(F)F)c4)c3C[C@H]2CN1C(=O)c1ccccc1 ... inactive
20) O=[N+]([O-])c1ccc(-c2cnc(SCc3ccccc3Cl)[nH]2)cc1 ... active
21) CC(C)(C)c1ccc(OCC(=O)NNC(=O)Cc2cccs2)cc1 ... inactive

----------
molecular target: Cytochrome P450 2D6 (Homo sapiens) (UniProt P10635); assay: Cytochrome panel assay with activity outcomes; conditions: recombinant CYP, pro-luciferin dealkylation, luminescence, p450-cyp2d6; series mostly up to 57.1 µM; for activity, negative = inhibition: % is set by controls: 0 for no effect and ±100 for the full control effect
Screen size: about 16,000 compounds; about 2,600 (16%) were called active. Another 20% or so got no clear call; they are omitted. These entries were drawn from the full list.
Measured activity, negative = inhibition, listed per entry for reference.
PARAMETER: activity, negative = inhibition

1. CN(C)Cc1cc(O)c(O)c(CN(C)C)c1 ... 1.36% [at 11.4 µM] (inactive)
2. C[C@@H](c1ccccc1)N1C(=O)[C@@H]2[C@H]3C(=CC[C@H]2C1=O)C(=O)[C@H]1O[C@H]1[C@H]3O ... 5.61% [at 11.4 µM] (inactive)
3. COC(=O)C/C=C\[C@@H](C)[C@@H](/C=N\O[C@@H](C)c1cn([C@H]2COC[C@H]2O)nn1)NS(=O)(=O)c1ccc(C)cc1 ... 5.15% [at 11.4 µM] (inactive)
4. CSc1nc2cc(S(=O)(=O)N3CCCCC3)ccc2s1 ... 11.3% [at 11.4 µM] (inactive)
5. CN(C)c1ccc(/C=N\NC(=O)c2cnc3ccccc3c2)cc1 ... 5.04% [at 11.4 µM] (inactive)
